Assay: physchem
Conditions: dimethyl sulfoxide (DMSO), organic solvent or mixture, thermodynamic from solid
MEASUREMENT NAME: solubility at 5 min

Request: Look up solubility at 5 min for this molecule: CC(C)C[C@H](NC(=O)[C@H](Cc1ccccc1)NC(=O)c1cnccn1)B(O)O
Result: > 50 mg/mL

----------
Test: physchem
Conditions: propylene glycol, organic solvent or mixture, thermodynamic from solid
MEASUREMENT NAME: solubility at 5 min

Request: // query solubility at 5 min value for entry CC(C)C[C@H](NC(=O)[C@H](Cc1ccccc1)NC(=O)c1cnccn1)B(O)O
Result: ~3600 µg/mL

----------
Assay: Equilibrium solubility by HPLC, bortezomib added directly to solvent system
Type: physicochemical
Settings: buffered aqueous solutions, aqueous buffer, thermodynamic from solid; pH range of 4 to 7
MEASUREMENT NAME: solubility at 24 h

Request: Which solubility at 24 h is listed for CC(C)C[C@H](NC(=O)[C@H](Cc1ccccc1)NC(=O)c1cnccn1)B(O)O ?
Result: < 500 µg/mL

----------
Experiment: physchem
Settings: ethanol, organic solvent or mixture, thermodynamic from solid
MEASUREMENT NAME: solubility at 5 min

Request: Would you mind telling me what solubility at 5 min value was observed for CC(C)C[C@H](NC(=O)[C@H](Cc1ccccc1)NC(=O)c1cnccn1)B(O)O [Bortezomib] ?
Result: ~4500 µg/mL

----------
Assay: physchem
Conditions: benzyl alcohol, organic solvent or mixture, thermodynamic from solid
MEASUREMENT NAME: solubility at 5 min

Request: Reported solubility at 5 min for CC(C)C[C@H](NC(=O)[C@H](Cc1ccccc1)NC(=O)c1cnccn1)B(O)O [Bortezomib] : what is it?
Result: > 50 mg/mL

----------
Assay: Solubility by HPLC, bortezomib premixed with nonaqueous solvent before addition to aqueous component
Format: physicochemical
Details: aqueous with cosolvent or surfactant or cyclodextrin, kinetic from dmso stock; premix in non-aqueous solvent, aqueous system with 25 mg/mL mannitol
MEASUREMENT NAME: solubility at 24 h

Request: Given CC(C)C[C@H](NC(=O)[C@H](Cc1ccccc1)NC(=O)c1cnccn1)B(O)O , state its recorded solubility at 24 h.
Result: > 4000 µg/mL

# credit: patent US20230096601A1
